System: Sindbis virus
EXPERIMENTAL PROTOCOL: Antiviral activity against sindbis virus in Vero cell culture lines
Assay type: functional
METRIC: MIC

COMPOUND	RECORDED RESULT
CCOC(=O)C(CCSC[C@H]1OC(n2ccc3c(N)ncnc32)[C@H](O)[C@@H]1O)NC(=O)COC (some centres undefined)	300 µg/mL
CCOC(=O)C(CCSC[C@H]1OC(n2ccc3c(N)ncnc32)[C@H](O)[C@@H]1O)NC(=O)C(F)(F)F (some centres undefined)	> 20 µg/mL
CCCOC(=O)C(CCSC[C@H]1OC(n2ccc3c(N)ncnc32)[C@H](O)[C@@H]1O)NC(C)=O (some centres undefined)	> 40 µg/mL
Nc1ncnc2c1ncn2[C@@H]1O[C@H](CCl)C[C@H]1O	> 40 µg/mL
Nc1ncnc2c1ncn2C[C@H](O)CO [(S)-DHPA]	> 400 µg/mL
CCOC(=O)C(N)CCSC[C@H]1OC(n2ccc3c(N)ncnc32)[C@H](O)[C@@H]1O (some centres undefined)	> 100 µg/mL
Nc1ncnc2c([C@H]3CC[C@@H](CCl)O3)n[nH]c12	> 200 µg/mL
COCC(=O)NC(CCSC[C@H]1OC(n2ccc3c(N)ncnc32)[C@H](O)[C@@H]1O)C(=O)O (some centres undefined)	> 400 µg/mL
Nc1ncnc2c([C@@H]3O[C@H](CSCCC(N)C(=O)O)C[C@H]3O)n[nH]c12 (some centres undefined)	> 40 µg/mL

* * *

Measured MIC accompanies every entry in the list below.
System: Poliovirus 1
EXPERIMENTAL PROTOCOL: Antiviral activity against polio virus type 1 in HeLa cell culture lines
Format: functional
CONDITION INFO: Enterovirus C

COMPOUND	SYSTEM TESTED	MIC
COCC(=O)NC(CCSC[C@H]1OC(n2ccc3c(N)ncnc32)[C@H](O)[C@@H]1O)C(=O)O (some centres not stated)	Poliovirus 1	> 400 µg/mL
Nc1ncnc2c(C3O[C@H](CCl)[C@@H](O)[C@H]3O)n[nH]c12 (some centres not stated)	Poliovirus 1	> 400 µg/mL
Nc1ncnc2c([C@H]3CC[C@@H](CCl)O3)n[nH]c12	Poliovirus 1	> 400 µg/mL
COC(=O)C(CCSC[C@@H]1C[C@@H](O)[C@H](n2ccc3c(N)ncnc32)O1)NC(=O)C(F)(F)F (some centres not stated)	Poliovirus 1	> 400 µg/mL
Nc1ncnc2c1ccn2C1O[C@H](CSCCC(NC(=O)C(F)(F)F)C(=O)O)[C@@H](O)[C@H]1O (some centres not stated)	Poliovirus 1	> 400 µg/mL
CC(C)OC(=O)C(CCSC[C@H]1OC(n2ccc3c(N)ncnc32)[C@H](O)[C@@H]1O)NC(=O)C(F)(F)F (some centres not stated)	Poliovirus 1	> 100 µg/mL
CCCCOC(=O)C(N)CCSC[C@H]1OC(n2ccc3c(N)ncnc32)[C@H](O)[C@@H]1O (some centres not stated)	Poliovirus 1	> 100 µg/mL
NC(=O)c1ncn([C@@H]2O[C@H](CO)[C@@H](O)[C@H]2O)n1 [RIBAVIRIN]	Poliovirus 1	70 µg/mL
CCCOC(=O)C(CCSC[C@H]1OC(n2ccc3c(N)ncnc32)[C@H](O)[C@@H]1O)NC(=O)COC (some centres not stated)	Poliovirus 1	100 µg/mL
CCCOC(=O)C(CCSC[C@H]1OC(n2ccc3c(N)ncnc32)[C@H](O)[C@@H]1O)NC(=O)C(F)(F)F (some centres not stated)	Poliovirus 1	> 100 µg/mL
Nc1ncnc2c1ncn2[C@@H]1O[C@H](CO)C[C@H]1O [CORDYCEPIN]	Poliovirus 1	> 100 µg/mL
Nc1nccc2c1ncn2[C@H]1CC[C@@H](CO)O1	Poliovirus 1	> 200 µg/mL
Nc1ncnc2c1ncn2[C@@H]1O[C@H](CSCCC(N)C(=O)O)C[C@H]1O (some centres not stated)	Poliovirus 1	> 200 µg/mL
Nc1nccc2c1ncn2[C@@H]1O[C@H](CO)C[C@H]1O	Poliovirus 1	> 40 µg/mL
COCC(=O)NC(CCSC[C@H]1OC(n2ccc3c(N)ncnc32)[C@H](O)[C@@H]1O)C(=O)OC(C)C (some centres not stated)	Poliovirus 1	> 200 µg/mL
Nc1ncnc2c1CCN2[C@@H]1O[C@H](CO)C[C@H]1O	Poliovirus 1	7 µg/mL
CC(=O)NC(CCSC[C@H]1OC(n2ccc3c(N)ncnc32)[C@H](O)[C@@H]1O)C(=O)OC(C)C (some centres not stated)	Poliovirus 1	100 µg/mL
Nc1ncnc2c1ncn2[C@@H]1O[C@H](CCl)C[C@H]1O	Poliovirus 1	> 200 µg/mL
CC(C)(C)C(=O)ONC(CCSC[C@H]1OC(n2ccc3c(N)ncnc32)[C@H](O)[C@@H]1O)C(=O)OCC[Si](C)(C)C (some centres not stated)	Poliovirus 1	> 40 µg/mL
Nc1ncnc2c1ncn2[C@H]1C[C@H](O)[C@@H](CO)O1 [DEOXYADENOSINE]	Poliovirus 1	> 200 µg/mL
CC(C)(C)C(=O)OCn1nc([C@@H]2O[C@H](CO)C[C@H]2O)c2ncnc(N)c21	Poliovirus 1	> 100 µg/mL
CC(C)(C)C(=O)ONC(CCSC[C@H]1OC(n2ccc3c(N)ncnc32)[C@H](O)[C@@H]1O)C(=O)O (some centres not stated)	Poliovirus 1	> 400 µg/mL
Nc1ncnc2c1ncn2C[C@H](O)CO [(S)-DHPA]	Poliovirus 1	> 400 µg/mL
Nc1ncnc2c1CCN2[C@@H]1O[C@H](CSCCC(N)C(=O)O)C[C@H]1O (some centres not stated)	Poliovirus 1	> 200 µg/mL
CC(C)(C)C(=O)OCn1nc([C@@H]2O[C@H](CO)[C@@H](O)[C@H]2O)c2ncnc(N)c21	Poliovirus 1	> 40 µg/mL
CCOC(=O)C(N)CCSC[C@H]1OC(n2ccc3c(N)ncnc32)[C@H](O)[C@@H]1O (some centres not stated)	Poliovirus 1	70 µg/mL
CCCOC(=O)C(CCSC[C@H]1OC(n2ccc3c(N)ncnc32)[C@H](O)[C@@H]1O)NC(C)=O (some centres not stated)	Poliovirus 1	40 µg/mL
Nc1ncnc2c([C@@H]3O[C@H](CSCCC(N)C(=O)O)C[C@H]3O)n[nH]c12 (some centres not stated)	Poliovirus 1	> 40 µg/mL
CC(C)OC(=O)C(N)CCSC[C@H]1OC(n2ccc3c(N)ncnc32)[C@H](O)[C@@H]1O (some centres not stated)	Poliovirus 1	> 100 µg/mL
CCCOC(=O)C(N)CCSC[C@H]1OC(n2ccc3c(N)ncnc32)[C@H](O)[C@@H]1O (some centres not stated)	Poliovirus 1	> 100 µg/mL
Nc1ncnc2c(C3O[C@H](CSCCC(N)C(=O)O)[C@@H](O)[C@H]3O)n[nH]c12 (some centres not stated)	Poliovirus 1	> 400 µg/mL
Nc1ncnc2c([C@H]3C[C@@H](O)[C@@H](CO)O3)n[nH]c12	Poliovirus 1	> 400 µg/mL
Nc1ncnc2c([C@@H]3O[C@H](CO)C[C@H]3O)n[nH]c12	Poliovirus 1	> 400 µg/mL
Nc1nccc2c1ncn2[C@@H]1O[C@H](CO)[C@@H](O)[C@H]1O	Poliovirus 1	> 400 µg/mL
Nc1nccc2ncn([C@H]3C[C@H](O)[C@@H](CO)O3)c12	Poliovirus 1	> 200 µg/mL
Nc1nccc2c1ncn2[C@@H]1O[C@H](CSCCC(N)C(=O)O)C[C@H]1O (some centres not stated)	Poliovirus 1	> 400 µg/mL
CC(=O)NC(CCSC[C@H]1OC(n2ccc3c(N)ncnc32)[C@H](O)[C@@H]1O)C(=O)O (some centres not stated)	Poliovirus 1	> 400 µg/mL
